- system: QT4 (QT2–4 single-site variant, only motif QT4 intact) (Drosophila) (UniProt Q9VZU1)
- protocol description: ITC; LC8 (400–500 µM) in the syringe titrated into QT variant (20–50 µM) in the cell; 25 °C; 50 mM sodium phosphate, 50 mM NaCl, 1 mM sodium azide, 5 mM β-mercaptoethanol, pH 7.5; single set of sites fit, for double-site variants also sequential binding sites (SBS) and two sets of sites (TSS) fits
value kind: Kd (µM)
# value in µM; strip the unit string

Find the measured Kd of Drosophila LC8 (natural protein, LC8 hub protein (dynein light chain LC8) of Drosophila; folds as a homodimer; tag cleaved by TEV protease; also called LC8 dimer; source: E. coli Rosetta (DE3), purified (TALON, anion exchange, Superdex 75 gel filtration)) MSDRKAVIKNADMSEEMQQDAVDCATQALEKYNIEKDIAAYIKKEFDKKYNPTWHCIVGRNFGSYVTHETRHFIYFYLGQVAILLFKSG and report it.
15
